Data provenance is paper PMC3688238.

Assay: Pharmacokinetic analysis of plasma motesanib concentrations (noncompartmental)
Assay type: in vivo, human
Details: human, plasma, po, 75 mg, Arm B, 75 mg BID 2 wk on/1 wk off; plasma, oral; read-out: Median Cmax
Assay readout: Cmax (ng/mL)
Provide the reading as a plain figure in ng/mL.

Inquiry: Query: Cmax; subject: CC1(C)CNc2cc(NC(=O)c3cccnc3NCc3ccncc3)ccc21
Reply text: 323

* * *

Test: Pharmacokinetic analysis of plasma motesanib concentrations (noncompartmental)
Format: in vivo, human
Settings: human, plasma, po, 125 mg, Arm A, 125 mg QD; plasma, oral; read-out: Median Cmax
Assay readout: Cmax (ng/mL)
Provide the reading as a plain figure in ng/mL.

Inquiry: Query: Cmax; subject: CC1(C)CNc2cc(NC(=O)c3cccnc3NCc3ccncc3)ccc21
Reply text: 630
